Provenance of the data: patent US20250215029A1

This section presents compounds with their documented IC50 values.
# Test system: Recombinant STAT3 protein (STAT3 (G127-I722)) (Homo sapiens, UniProt P40763)
# Construct: Recombinant STAT3 protein (STAT3 (G127-I722))
# Sequence (P40763 127-722): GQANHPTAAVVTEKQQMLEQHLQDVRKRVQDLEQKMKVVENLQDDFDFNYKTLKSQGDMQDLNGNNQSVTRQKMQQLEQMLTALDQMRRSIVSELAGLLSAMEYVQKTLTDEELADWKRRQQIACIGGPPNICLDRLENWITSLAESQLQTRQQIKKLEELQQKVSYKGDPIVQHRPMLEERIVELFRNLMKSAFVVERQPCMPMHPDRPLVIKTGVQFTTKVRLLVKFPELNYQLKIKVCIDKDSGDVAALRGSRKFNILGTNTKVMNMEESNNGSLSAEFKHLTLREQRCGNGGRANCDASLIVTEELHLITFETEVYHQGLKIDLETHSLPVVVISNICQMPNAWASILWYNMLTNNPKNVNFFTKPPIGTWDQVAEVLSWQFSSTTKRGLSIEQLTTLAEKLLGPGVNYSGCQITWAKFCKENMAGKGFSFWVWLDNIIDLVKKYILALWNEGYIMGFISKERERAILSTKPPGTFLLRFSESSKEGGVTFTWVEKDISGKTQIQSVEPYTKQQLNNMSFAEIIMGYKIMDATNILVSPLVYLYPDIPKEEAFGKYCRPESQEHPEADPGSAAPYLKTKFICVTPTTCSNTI
# Protocol details: STAT3 Fluorescence Polarization (FP) Assay
# Assay type: binding
# Measurement setup: STAT3 25 nM, probe 5-FAM-GpYLPQTV-NH2 2 nM, 45-minute incubation; read-out: STAT3 (FP assay IC50)

Illustrative cases are given below, each with its answer.
For the record `CC(=O)N1C[C@H](NC(=O)[C@@H]2CC[C@@H]3CCC[C@H](NC(=O)c4cc5cc(C(F)(F)P(=O)(O)O)ccc5s4)C(=O)N32)[C@@H](O)C1` , what value of IC50 is listed for Recombinant STAT3 protein (STAT3 (G127-I722)) (Homo sapiens, UniProt P40763)?
0.1 to 1 µM

Input `C[C@]1(NC(=O)c2cc3cc(C(F)(F)P(=O)(O)O)ccc3s2)CCCC[C@H]2CC[C@@H](C(=O)N3CC(c4ccccn4)C3)N2C1=O`
< 0.1 µM

Further cases:
Missing value: IC50, Recombinant STAT3 protein (STAT3 (G127-I722)) (Homo sapiens, UniProt P40763), entry `O=C(N[C@H]1CCC[C@H]2CC[C@@H](C(=O)N3CC(C(=O)N4CCOCC4)C3)N2C1=O)c1cc2cc(C(F)(F)P(=O)(O)O)ccc2s1` . Fill in?
0.1 to 1 µM

And what about the compound `O=C(N[C@H]1CCC[C@H]2CC[C@@H](C(=O)Nc3ccc(-c4ccccc4)cc3)N2C1=O)c1cc2cc(C(F)(F)P(=O)(O)O)ccc2s1` ?
0.1 to 1 µM

Then what about the compound N#C[C@H]1CN(C(=O)[C@@H]2CC[C@@H]3CC[C@@H](N4CCC4)C[C@H](NC(=O)c4cc5cc(C(F)(F)P(=O)(O)O)ccc5s4)C(=O)N32)C[C@@H]1c1ccccc1 (mixture of isomers) ?
1 to 10 µM

Please give the result for N#C[C@H]1CN(C(=O)[C@@H]2CC[C@@H]3CCCC[C@H](NC(=O)c4cc5cc(C(F)(F)P(=O)(O)O)ccc5s4)C(=O)N32)C[C@H]1c1ccccc1 (relative stereo) too.
0.1 to 1 µM

What do you get for `O=C(N[C@H]1CCCC[C@H]2CC[C@@H](C(=O)N3CC(Cc4ccccc4)C3)N2C1=O)c1cc2cc(C(F)(F)P(=O)(O)O)ccc2s1` ?
< 0.1 µM

Let us now turn to `O=C(N[C@H]1CC[C@@H](O)C[C@H]2CC[C@@H](C(=O)N3CC(C(=O)N4CCOCC4)C3)N2C1=O)c1cc2cc(C(F)(F)P(=O)(O)O)ccc2s1`
0.1 to 1 µM

----------
Each record here notes measured IC50.
# Test system: pY705-STAT3 in PBMC (Homo sapiens, UniProt P40763)
# Construct: Cryopreserved Peripheral Blood Mononuclear Cells (PBMC) are from AllCells; host or cells: cryopreserved PBMC
# Sequence (P40763 whole entry): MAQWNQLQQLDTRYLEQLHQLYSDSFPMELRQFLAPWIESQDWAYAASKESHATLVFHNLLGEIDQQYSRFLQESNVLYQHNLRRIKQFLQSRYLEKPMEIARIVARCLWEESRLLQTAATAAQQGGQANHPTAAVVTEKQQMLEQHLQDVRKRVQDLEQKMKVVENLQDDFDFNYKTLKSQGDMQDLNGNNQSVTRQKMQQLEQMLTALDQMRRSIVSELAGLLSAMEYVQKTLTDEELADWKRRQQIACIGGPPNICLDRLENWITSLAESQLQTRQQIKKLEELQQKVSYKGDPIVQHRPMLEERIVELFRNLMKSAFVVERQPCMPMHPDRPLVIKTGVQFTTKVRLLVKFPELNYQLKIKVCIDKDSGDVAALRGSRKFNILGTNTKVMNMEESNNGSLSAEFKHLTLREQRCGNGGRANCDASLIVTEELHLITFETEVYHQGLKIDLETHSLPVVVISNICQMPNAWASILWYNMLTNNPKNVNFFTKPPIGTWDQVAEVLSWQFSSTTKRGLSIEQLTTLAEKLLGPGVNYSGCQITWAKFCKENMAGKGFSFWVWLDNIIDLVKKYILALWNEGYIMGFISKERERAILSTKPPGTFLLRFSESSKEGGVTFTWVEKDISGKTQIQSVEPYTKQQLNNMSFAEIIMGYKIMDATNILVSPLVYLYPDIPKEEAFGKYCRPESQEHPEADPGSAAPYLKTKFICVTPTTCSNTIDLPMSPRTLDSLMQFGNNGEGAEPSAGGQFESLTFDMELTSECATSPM
# Protocol details: MSD-pSTAT-PBMC Assay (pSTAT3, IL-6 stimulated)
# Assay type: cell-based
# Measurement setup: PBMC, compound 3 hrs, then 10 ng/mL IL-6 for 10 min; Table 115; read-out: STAT3

Take a look at these entries with their results.
For CCCOC(=O)[C@H](C)NP(=O)(Oc1ccccc1)[C@@H](F)c1ccc2sc(C(=O)N[C@H]3CCC[C@H]4CC[C@@H](C(=O)N5CC(c6cnccc6F)C5)N4C3=O)cc2c1 (some centres unmarked) [Compound 994] , what is its reported IC50?
100 to 1000 nM

Queued: Cc1ccncc1C1CN(C(=O)[C@@H]2CC[C@@H]3CCC[C@H](NC(=O)c4cc5cc(C(F)(F)P(=O)(OCCSC(=O)C(C)(C)C)OCCSC(=O)C(C)(C)C)ccc5s4)C(=O)N32)C1 [Compound 968]
< 100 nM

One more molecule: Cc1ccncc1C1CN(C(=O)[C@@H]2CC[C@@H]3CCC[C@H](NC(=O)c4cc5cc(C(F)(F)P(=O)(N[C@@H](C)C(=O)OCc6ccccc6)Oc6ccccc6)ccc5s4)C(=O)N32)C1 (some centres unmarked) [Compound 297]
100 to 1000 nM

Now consider CCCOC(=O)CNP(=O)(Cc1ccc2sc(C(=O)N[C@H]3CCC[C@H]4CC[C@@H](C(=O)N5CC(c6cccnc6)C5)N4C3=O)cc2c1)Oc1ccccc1 (some centres unmarked) [Compound 264] .
100 to 1000 nM

Also CCCOC(=O)[C@H](C)N[P@@](=O)(Oc1ccccc1)[C@@H](F)c1ccc2sc(C(=O)N[C@H]3C[C@@H](C)C[C@H]4CC[C@@H](C(=O)N5CC(c6cnccc6C)C5)N4C3=O)cc2c1 (single isomer, unassigned) [Compound 1037] , if possible.
< 100 nM

---
Reported IC50 for CCCCOC(=O)[C@@H]1CCCN1P(=O)(Cc1ccc2sc(C(=O)N[C@H]3CCC[C@H]4CC[C@@H](C(=O)N5CC(c6cccnc6)C5)N4C3=O)cc2c1)Oc1ccccc1 (some centres unmarked) [Compound 1003] : what is it?
1000 to 3000 nM

Another molecule: CC(C)CC(=O)SCCOP(=O)(OCOC(=O)OC(C)C)C(F)(F)c1ccc2ccc(C(=O)N[C@H]3CCCC[C@H]4CC[C@@H](C(=O)N5C[C@H](c6cc[nH]c(=O)c6)[C@@H](C#N)C5)N4C3=O)cc2c1 (single isomer, unassigned) [Compound 1100]
100 to 1000 nM

Also CCCOC(=O)[C@H](C)NP(=O)(Oc1ccccc1)C(F)c1ccc2sc(C(=O)N[C@H]3CCC[C@H]4CC[C@@H](C(=O)N5CC(c6cnccc6CC)C5)N4C3=O)cc2c1 (some centres unmarked) [Compound 261] ?
< 100 nM
